Target: Human NK1 Receptor (Homo sapiens, UniProt P25103)
Construct: endogenous in cells; host or cells: Human lymphoma IM9 cells (whole cells)
Sequence (P25103 whole entry): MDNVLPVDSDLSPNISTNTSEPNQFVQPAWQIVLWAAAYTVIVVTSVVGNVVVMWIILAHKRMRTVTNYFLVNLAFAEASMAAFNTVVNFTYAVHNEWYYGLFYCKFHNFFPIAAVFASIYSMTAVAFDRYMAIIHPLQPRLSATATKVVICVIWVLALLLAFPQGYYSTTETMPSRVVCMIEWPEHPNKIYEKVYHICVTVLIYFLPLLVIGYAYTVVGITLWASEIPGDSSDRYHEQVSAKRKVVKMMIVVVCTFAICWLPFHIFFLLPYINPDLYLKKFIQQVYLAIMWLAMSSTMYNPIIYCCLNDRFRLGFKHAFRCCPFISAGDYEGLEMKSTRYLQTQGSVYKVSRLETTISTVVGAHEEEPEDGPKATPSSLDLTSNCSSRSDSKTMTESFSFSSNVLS
Assay: In Vitro Human NK1 Receptor Binding Assay ([125I]Bolton-Hunter substance P displacement, IM9 cells)
Conditions: Human lymphoma IM9 cells, [125I]Bolton-Hunter substance P; Table 3, array-synthesis products; read-out: IC50 (nM) hNK1
Description: They have been evaluated in an NK1-receptor binding assay which is described below. Human lymphoma IM9 cells were grown in RPMI 1640 culture medium supplemented with 10% fetal calf serum and 2 mM glutamine and maintained under an atmosphere of 5% CO2. […] Filters were washed with 6×1 ml ice-cold Tris HCl (50 mM, pH 7.4) and radioactivity bound determined using a gamma couter. Results were analyzed using iterative curve fitting procedures in RS1 or Graphpad Inplot.
MEASURED_METRIC: IC50 (nM)
Give your result in nM as a bare value.

Reference set, count: 6
molecule="O=C(NC1CCc2ccccc21)C(Cc1c[nH]c2ccccc12)NCc1cc2ccccc2o1 (stereo not shown) [Example 262]" result=86
molecule="O=C(NCCOc1ccccc1)C(Cc1c[nH]c2ccccc12)NCc1cc2ccccc2o1 (stereo not shown) [Example 305]" result=400
molecule="CC(Cc1ccc(Cl)cc1)NC(=O)C(Cc1c[nH]c2ccccc12)NCc1cc2ccccc2o1 (stereo not shown) [Example 282]" result=833
molecule="O=C(NC1CCCc2ccccc21)C(Cc1c[nH]c2ccccc12)NCc1cc2ccccc2o1 (stereo not shown) [Example 194]" result=703
molecule="O=C(CNC(=O)C(Cc1c[nH]c2ccccc12)NCc1cc2ccccc2o1)c1ccccc1 (stereo not shown) [Example 237]" result=5340
molecule="O=C(NCCc1cccs1)C(Cc1c[nH]c2ccccc12)NCc1cc2ccccc2o1 (stereo not shown) [Example 247]" result=56

Report IC50 from Human NK1 Receptor (Homo sapiens, UniProt P25103) testing of O=C(NCc1ccccc1Br)C(Cc1c[nH]c2ccccc12)NCc1cc2ccccc2o1 (stereo not shown) [Example 302]
174

Provide IC50, tested on Human NK1 Receptor (Homo sapiens, UniProt P25103), for Nc1ccc(CNC(=O)C(Cc2c[nH]c3ccccc23)NCc2cc3ccccc3o2)cc1 (stereo not shown) [Example 306] .
639

For Human NK1 Receptor (Homo sapiens, UniProt P25103), give the measured IC50 of the entry O=C(NCCc1ccc([N+](=O)[O-])cc1)C(Cc1c[nH]c2ccccc12)NCc1cc2ccccc2o1 (stereo not shown) [Example 281]
51
